measured-on: Histidine tagged HIF-2α protein containing PAS-B domain (240-350) (Homo sapiens)
Construct: HIF-2α protein containing PAS-B domain (240-350); made in house
Sequence (Q99814 240-350): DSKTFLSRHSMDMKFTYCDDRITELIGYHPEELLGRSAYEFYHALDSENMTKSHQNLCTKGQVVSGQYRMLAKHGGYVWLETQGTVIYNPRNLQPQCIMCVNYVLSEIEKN
method-notes: HIF-2α Scintillation Proximity Assay (SPA) binding assay
condition: Table 1; 50 nM HIF-2α protein, 25 nM 3H-tracer
pIC50: −log10 of the molar value.
A collection of molecules and their measured pIC50
property-measured: pIC50

molecule | readout-value
CS(=O)(=O)c1ccc(C2CCCc3cc(F)cc(C#N)c32)c2c1[C@H](O)[C@H](F)C2 (stereo in doubt) | > 7.00
O=[N+]([O-])c1cc(C(F)(F)F)ccc1N1CCCc2cc(F)cc(F)c21 | < 6.00
O=[N+]([O-])c1cc(S(=O)(=O)C(F)(F)F)ccc1N1CCCc2c(F)cc(F)cc21 | < 6.00
N#Cc1cc(F)cc2c1N(c1ccc(C(F)(F)F)c(F)c1C#N)CCC2O (centres unmarked) | < 6.00
CS(=O)(=O)c1ccc(C2CCCc3cc(F)cc(F)c32)c(Cl)c1C#N (centres unmarked) | 6.00 to 7.00
O=S(=O)(c1ccc(N2CCCc3cc(F)cc(F)c32)cc1CO)C(F)(F)F | < 6.00
O=S(=O)(c1ccc([C@]2(O)CCCc3cc(F)cc(F)c32)c2c1[C@H](O)[C@H](F)C2)C(F)(F)F | < 6.00
Cc1c(N2CCCc3cc(F)cc(C#N)c32)ccc(C(F)(F)F)c1F | 6.00 to 7.00

====

measured-on: HIF-2α (Homo sapiens, UniProt Q99814)
Construct: host or cells: 786-O cells stably transduced with Cignal Lenti HIF Luc Reporter (only the reporter was introduced, not HIF-2α)
Sequence (Q99814 whole entry): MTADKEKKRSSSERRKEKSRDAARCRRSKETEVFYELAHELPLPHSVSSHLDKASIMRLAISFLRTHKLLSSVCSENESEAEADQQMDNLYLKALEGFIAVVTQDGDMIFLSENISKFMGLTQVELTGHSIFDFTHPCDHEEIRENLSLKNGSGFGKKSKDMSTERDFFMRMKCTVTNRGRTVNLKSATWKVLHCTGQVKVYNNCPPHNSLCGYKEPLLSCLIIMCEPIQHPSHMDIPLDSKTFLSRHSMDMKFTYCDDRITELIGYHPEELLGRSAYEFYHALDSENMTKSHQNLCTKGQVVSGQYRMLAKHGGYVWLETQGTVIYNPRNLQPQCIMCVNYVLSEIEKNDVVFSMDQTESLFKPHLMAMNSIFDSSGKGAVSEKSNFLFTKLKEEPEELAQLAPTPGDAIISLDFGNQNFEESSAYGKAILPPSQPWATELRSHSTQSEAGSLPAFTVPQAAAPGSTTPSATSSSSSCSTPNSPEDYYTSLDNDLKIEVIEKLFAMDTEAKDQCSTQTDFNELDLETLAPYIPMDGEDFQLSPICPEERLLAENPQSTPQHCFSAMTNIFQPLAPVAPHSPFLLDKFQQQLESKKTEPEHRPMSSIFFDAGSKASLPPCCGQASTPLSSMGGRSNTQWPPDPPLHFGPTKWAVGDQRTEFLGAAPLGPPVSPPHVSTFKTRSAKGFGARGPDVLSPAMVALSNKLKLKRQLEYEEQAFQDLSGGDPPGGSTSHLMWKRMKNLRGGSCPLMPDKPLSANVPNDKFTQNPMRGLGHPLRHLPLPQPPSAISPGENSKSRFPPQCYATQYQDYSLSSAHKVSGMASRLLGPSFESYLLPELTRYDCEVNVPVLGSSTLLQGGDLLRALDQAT
method-notes: HIF-2α luciferase reporter assay in HIF-Luc-786-O cells
Type: cell-based
condition: Table 3, 20 hours incubation
pIC50: −log10 of the molar value.

cpd-smiles | pIC50
N#Cc1cc(F)cc2c1[C@@H](c1ccc(-c3cccnc3)c3c1CC(F)(F)[C@H]3O)CC[C@@H]2F | > 7.00
Cc1ccccc1-c1ccc([C@H]2CC[C@H](F)c3cc(F)cc(C#N)c32)c2c1[C@H](O)C(F)(F)C2 | > 7.00
N#Cc1cc(F)cc2c1[C@@H](c1ccc(-c3cnc4cnccn34)c3c1CC(F)(F)[C@H]3O)CC[C@@H]2F | > 7.00
N#Cc1cc(F)cc2c1[C@@H](c1ccc(-c3cnc4c(N)cccn34)c3c1CC(F)(F)[C@H]3O)CC[C@@H]2F | > 7.00
Cc1ncc(-c2ccc([C@H]3C[C@H](F)[C@H](F)c4cc(F)cc(C#N)c43)c3c2[C@H](O)C(F)(F)C3)c(N)n1 | > 7.00
N#Cc1cc(F)cc2c1[C@@H](c1ccc(-c3cccc4ncsc34)c3c1CC(F)(F)[C@H]3O)CC[C@@H]2F | > 7.00
N#Cc1cc(F)cc2c1[C@@H](c1ccc(-c3cnc4ncccn34)c3c1CC(F)(F)[C@H]3O)CC[C@@H]2F | 6.00 to 7.00
Cc1[nH]c(=O)ccc1-c1ccc([C@H]2CC[C@H](F)c3cc(F)cc(C#N)c32)c2c1[C@H](O)C(F)(F)C2 | 6.00 to 7.00
N#Cc1cc(F)cc2c1[C@@H](c1ccc(Cl)c3c1C[C@@H](F)[C@H]3O)CC[C@@H]2F | > 7.00
CS(=O)(=O)c1ccc([C@H]2CC[C@H](F)c3cc(F)cc(C#N)c32)c2c1[C@H](O)[C@](F)(C#N)C2 | 6.00 to 7.00
CN(C)C(=O)c1ccc([C@H]2CC[C@H](F)c3cc(F)cc(C#N)c32)c2c1[C@H](O)C(F)(F)C2 | 6.00 to 7.00
N#Cc1cc(F)cc2c1[C@@H](c1ccc(-c3scnc3CO)c3c1CC(F)(F)[C@H]3O)CC[C@@H]2F | > 7.00
N#Cc1cc(F)cc2c1[C@@H](c1ccc(-c3nccnc3N)c3c1CC(F)(F)[C@H]3O)CC[C@@H]2F | > 7.00
N#Cc1cc(F)cc2c1[C@@H](c1ccc(C(=O)O)c3c1CC(F)(F)[C@H]3O)CC[C@@H]2F | 6.00 to 7.00
Cn1nncc1-c1ccc([C@H]2CC[C@H](F)c3cc(F)cc(C#N)c32)c2c1[C@H](O)[C@H](F)C2 | > 7.00
N#Cc1cc(F)cc2c1[C@@H](c1ccc(-c3cnccc3F)c3c1CC(F)(F)[C@H]3O)CC[C@@H]2F | > 7.00
N#Cc1cc(F)cc2c1[C@@H](c1ccc(-c3cccc(F)c3N)c3c1CC(F)(F)[C@H]3O)CC[C@@H]2F | > 7.00
N#Cc1ccc(-c2ccc([C@H]3CC[C@H](F)c4cc(F)cc(C#N)c43)c3c2[C@H](O)C(F)(F)C3)c(N)c1 | > 7.00
CC(C)(O)c1ccc([C@H]2CC[C@H](F)c3cc(F)cc(C#N)c32)c2c1[C@H](O)C(F)(F)C2 | > 7.00
Cc1ncsc1-c1ccc([C@H]2CC[C@H](F)c3cc(F)cc(C#N)c32)c2c1[C@H](O)C(F)(F)C2 | > 7.00
Cc1ncc(-c2ccc([C@H]3CC[C@H](F)c4cc(F)cc(C#N)c43)c3c2[C@H](O)C(F)(F)C3)o1 | 6.00 to 7.00
Cc1nc2ccccn2c1-c1ccc([C@H]2CC[C@H](F)c3cc(F)cc(C#N)c32)c2c1[C@H](O)C(F)(F)C2 | 6.00 to 7.00
Cn1cc(-c2ccc([C@H]3CC[C@H](F)c4cc(F)cc(C#N)c43)c3c2[C@H](O)C(F)(F)C3)cn1 | 6.00 to 7.00
N#Cc1ccc(-c2c(F)cc([C@H]3CC[C@H](F)c4cc(F)cc(C#N)c43)c3c2[C@H](O)C(F)(F)C3)c(N)c1 | > 7.00
Cn1nccc1-c1ccc([C@H]2CC[C@H](F)c3cc(F)cc(C#N)c32)c2c1[C@H](O)[C@H](F)C2 | > 7.00
Cc1c(-c2ccc([C@H]3CC[C@H](F)c4cc(F)cc(C#N)c43)c3c2[C@H](O)C(F)(F)C3)nnn1C | 6.00 to 7.00
Cn1nccc1-c1c(F)cc([C@H]2CC[C@H](F)c3cc(F)cc(C#N)c32)c2c1[C@H](O)[C@H](F)C2 | > 7.00

====

measured-on: HIF-2α (Homo sapiens)
Construct: host or cells: 786-O cells stably transduced with Cignal Lenti HIF Luc Reporter (only the reporter was introduced, not HIF-2α)
method-notes: HIF-2α luciferase reporter assay in HIF-Luc-786-O cells
Type: cell-based
condition: Table 1, 20 hours incubation

compound | IC50
N#Cc1cc(F)cc2c1N(c1ccc(S(=O)(=O)C(F)(F)F)c3cnccc13)CCC2 | 0.1 to 1 µM
CC1(C)CC[C@H](c2ccc(S(=O)(=O)C(F)(F)F)c3c2C[C@@H](F)[C@H]3O)c2c(C#N)cc(F)cc21 | < 0.1 µM
CS(=O)(=O)c1ccc([C@@H]2CCCc3cnccc32)c2c1[C@H](O)C(F)(F)C2 | > 1 µM
CC(C)(O)c1cc(N2CCCc3cc(F)cc(F)c32)ccc1S(C)(=O)=O | > 1 µM
N#Cc1cc(F)cc2c1[C@H](c1ccc(S(=O)(=O)C(F)(F)F)c3c1CC[C@H]3O)CCC2 | 0.1 to 1 µM
N#Cc1cc(F)cc2c1N(c1ccc(C(F)(F)F)c(C#N)c1Cl)CCO2 | 0.1 to 1 µM
O=S(=O)(c1ccc(N2C[C@@H](O)Cc3cc(F)cc(F)c32)c2c1[C@H](O)[C@H](F)C2)C(F)(F)F | > 1 µM
N#Cc1ccc2c(c1)N(c1ccc(S(=O)(=O)C(F)(F)F)cc1[N+](=O)[O-])CCC2 | > 1 µM
Cc1ccc2c(c1)N(c1ccc(S(=O)(=O)C(F)(F)F)cc1[N+](=O)[O-])CCC2 | > 1 µM
CS(=O)(=O)c1ccc([C@H]2CCCc3cc(F)cc(C#N)c32)c2c1[C@H](O)[C@@H](F)CC2 | 0.1 to 1 µM
N#Cc1c(Cl)ccc(N2CCCc3cc(F)cc(F)c32)c1C(F)F | > 1 µM
O=Cc1c(S(=O)(=O)C(F)(F)F)ccc(N2CCCc3cc(F)cc(F)c32)c1Cl [Example 68] | > 1 µM
O=S1(=O)c2ccc(N3CCCc4cc(F)cc(F)c43)c(Cl)c2C(O)C1(F)F (stereo not shown) | > 1 µM
N#Cc1cc(F)cc2c1N(c1ccc(S(=O)(=O)C(F)(F)F)c3ncccc13)CCC2 | > 1 µM
O=[N+]([O-])c1cc(S(=O)(=O)C(F)(F)F)ccc1N1CCOc2ccc(Cl)cc21 | > 1 µM
O=S(=O)(c1ccc(C2CCCc3cc(F)cc(F)c32)c2c1[C@H](O)[C@H](F)C2)C(F)(F)F (stereo partly shown) | < 0.1 µM
